- assay remarks: yeast display, Sf9 membrane polyspecificity reagent, FACS + sequencing; frameworks hold sequencing errors
value kind: polyreactivity (PSR sort gate)

Item: QFQLVESGGGLVQAGGSLRLSCAASRFYTMGWSRQAPGKERELVAAISWSGGDTYYADSVKGRFTISRDNAKNTVYLQMTSLKPEDTAVYYCAKKTIGSYVHEPYYYWGHGTQVTVSS | polyreactivity (PSR sort gate): low polyreactivity

Item: QVQLVESGGGLVQAGGSLRLSCAASGRTFASYAMGWYRKAPGKETELVATISSGDSTYADSVKGRFTISRDNAKITVYLQRNRLKPEDTAVYYCAAASDLPGTCGYDYWGQGTQVTVSS | polyreactivity (PSR sort gate): low polyreactivity

Item: QVQLVESGGGLVQAGGSLRLSCAASGRILHGYAMGWYRQAPGKERELVAAITSSGGRTYYADSVKGRFPISRDNAKNTVYLQMISLKPEDTAVYYCAADRPAYRTGDSKYDYWGQGTQVTVSS | polyreactivity (PSR sort gate): low polyreactivity

----------
- assay remarks: yeast display, Sf9 membrane polyspecificity reagent, FACS + sequencing; frameworks hold sequencing errors
value kind: polyreactivity (PSR sort gate)

Consider the reported polyreactivity (PSR sort gate) for these sequences:
Item: QVELVESGGGLVQAGGSLRLSCAASGLTFVSYAMGWYRQAPGKERELVAAISRSGGSTYYADSVKGRFTISLDNAKNTVYLQMNSLKPEDTAVYYCNAYSYVEFWAVYRYDYWGQGTQVTVSS | polyreactivity (PSR sort gate): high polyreactivity

Item: QVQLVESGGGLVQAGGSLRLSCAASGLTLTYYAMGWYRQAPGKERELVAAISSSGGSTYYADSVKGRFTISRDNAKNTVYLQMNSLKPEDTAVYYCAARDWASHTPFDYWGQGTQVTVSS | polyreactivity (PSR sort gate): high polyreactivity

Item: QVQLVESGGGLVQAGGSLRLSCAASGSIFWTNAMGWYRQAPGKERELVAAIRVSTGSTYYADSVKGRFTISRDIAKNNVYLQMNSLKPEDTAVYYCNADLYIYEWYPALHSNDYWGQGTQVTVSS | polyreactivity (PSR sort gate): low polyreactivity

Item: QVQLVESGGLLVQAGGSLRLSCAASGSNSYRYDIVWYRQPPGKERELVATIRSGGSTNYADSVKGRFTISRDNAKNTVYLQMNSLKPEDTAVYYCASRLYARKKLHFSADSDYWGQGTQVSVSS | polyreactivity (PSR sort gate): low polyreactivity

Others:
Item: QVQLVESGGGLVQAGGSLRLSCAASGSIFKRYAMGWYRQAPGKERELVAAISYSGGSTYYADSVKGLFTISRDNAKNTVYLQMNSLKPEDTAVDYCARGWFYPYYWGQGTQVTVSS | polyreactivity (PSR sort gate): high polyreactivity

----------
- assay remarks: yeast display, Sf9 membrane polyspecificity reagent, FACS + sequencing; frameworks hold sequencing errors
value kind: polyreactivity (PSR sort gate)

Item: QVQLVESGGGLVQAGGSLRLSCAASGITFAYYARGWYRQAPGKERELVAAITGDGGYTYYADSVKGRFTISRDNAKNTVYLQMNSLKPEDTAVYYCNAELSDYRYDWWDYDYWGQGTQVTVSS | polyreactivity (PSR sort gate): high polyreactivity

Item: QVQLVESGGGLVQAGGSLRLSCAASGLTFYRYAMGWYRQAPGKERELVAAITSGGGRTYYADSVKGRFTISRDNAKNTVYLQMNSLKPEDTAVYYCAADRGDYRWRGLTPSSYGYWGQGTQVTVSS | polyreactivity (PSR sort gate): high polyreactivity

Item: QVQLVESGGGLVQAGGSLRLSCAASGSIFDIYAMGWYRPAPGKERELVAAISLSAGSTYYADSVKGRFTISRDNAKNTVYLQMNSLKPEDTAVYYCNADGWYGYWGQGTQVTVSS | polyreactivity (PSR sort gate): low polyreactivity

Item: QVQLVESGGGLVQAGGSLRLSCAASGLTFKRYAMGWYRQAPGKERELVASITGNGGSTYYADSVKGRFTISRDNAKNTVYLQMNSLIPEDTAVYYCNSRRYVRTSQQPLYDYWGQVTQVTVSS | polyreactivity (PSR sort gate): high polyreactivity

Item: QVQLVESGGGLVQAGGSLRLSCAASGSIFRWYAMGWYRQAPGKERELVAAISTSGGNTYYADSVKGRFTISRDNAKNTVYLQMNSLKPEDTAVYYCNALWYRSLSYRYDYWGQGTQVTVSS | polyreactivity (PSR sort gate): high polyreactivity

Item: QVQLVESGGGLVQAGGSLRLSCAASGNIFARYAMGWYRQAPGKEREMVARISESGGRTYYADSVKARFTISRDNAKNTVYLQMNSLKPEDTAVYYCADRRYIQYGFKFYYWGQGTQLTVSS | polyreactivity (PSR sort gate): high polyreactivity

Shift focus to the following entry.
Item: QVQLVESGGGLVQAGGSLRLICAASGLTFAGYAMGWYRQAPGKERELVAAITYSTGRTYYADSVKGRFTISRDNAKNTVYLQMNSLKPEDTAVYYCAALLRGQDRTMDYWGQGTQVTVSS | polyreactivity (PSR sort gate): high polyreactivity
